Entries and their EC50
experimentalSystem: rat M1 N110A receptor (Rattus norvegicus, UniProt P08482, N110A)
Sequence (P08482 whole entry N110A): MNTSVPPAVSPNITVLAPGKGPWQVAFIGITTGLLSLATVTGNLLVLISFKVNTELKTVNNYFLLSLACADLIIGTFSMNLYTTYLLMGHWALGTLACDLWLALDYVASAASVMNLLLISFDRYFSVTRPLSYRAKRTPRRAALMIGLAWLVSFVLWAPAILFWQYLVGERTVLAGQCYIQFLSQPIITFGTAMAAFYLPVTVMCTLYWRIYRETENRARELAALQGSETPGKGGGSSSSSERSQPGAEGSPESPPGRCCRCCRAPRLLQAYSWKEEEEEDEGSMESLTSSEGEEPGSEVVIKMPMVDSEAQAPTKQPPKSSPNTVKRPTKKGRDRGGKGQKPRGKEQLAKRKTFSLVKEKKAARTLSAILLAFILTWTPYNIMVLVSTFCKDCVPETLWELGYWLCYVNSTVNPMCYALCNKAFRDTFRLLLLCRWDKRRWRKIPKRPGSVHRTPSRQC
experimentalDetails: R-SAT functional assay, N110A mutant
experimentalSetup: Table 3; N110A
measurementKind: EC50 (nM)

>>> resultvalue("Clc1ccc2c(c1)N=C(N1CCNCC1)c1ccccc1N2")
794
>>> resultvalue("CCCCC1CCN(CCCN2C(=O)COc3cc(F)ccc32)CC1")
631

====

experimentalSystem: rat M1 wild-type receptors (Rattus norvegicus)
Construct: expressed in transfected cells
Sequence (P08482 whole entry): as the sequence (P08482 whole entry N110A) above, with A110N counted along it
experimentalDetails: R-SAT functional assay, wild-type receptor
Format: cell-based
experimentalSetup: Table 4; M1 wild type; maximum response relative to xanomeline
Define the label as label 1 when % Eff is strictly less than 40% and as label 0 in all remaining cases.

>>> qualitativelabel("Clc1ccc2c(c1)N=C(N1CCNCC1)c1ccccc1N2 [NDMC]")
"label 0"
>>> qualitativelabel("O=C1CCCN1CC#CCN1CCCC1 [Oxotremorine]")
"label 0"
>>> qualitativelabel("CCCCC1CCN(CCCN2C(=O)COc3cc(F)ccc32)CC1 [AC-260584]")
"label 0"
>>> qualitativelabel("CCCCC1CCN(CCCC(=O)c2ccccc2C)CC1 [AC-42]")
"label 1"
>>> qualitativelabel("CCCCCCOc1nsnc1C1=CCCN(C)C1 [Xanomeline]")
"label 0"
